- Test system: NCI-H460 (non-small lung carcinoma)
- test name: in vitro cytotoxicity, cultured cancer cell panel: NCI-H460
- Assay type: cell-based, Human
- test conditions: NCI-H460; total growth inhibition (0% growth)

{"columns": ["substance", "experimental target", "operator", "TGI, ng/mL"],
 "data": [
  ["Dov-Val-Dil-Dap-Met 1-(bicyclo[3.3.0]octane) Amide [Compound 12d]", "NCI-H460 (non-small lung carcinoma)", "=", 4],
  ["Dov-Val-Dil-Dap-Phe Amide [Compound 28d]", "NCI-H460 (non-small lung carcinoma)", ">", 0.1],
  ["Dov-Val-Dil-Dap 2-[p-aminophenyl]ethylamide [Compound 29d]", "NCI-H460 (non-small lung carcinoma)", "=", 0.87],
  ["Dov-Val-Dil-Dap 1-bicyclo[3.3.0]octane amide [Compound 13b]", "NCI-H460 (non-small lung carcinoma)", ">", 10]
]}

---

Measured TGI of individual entries
- System: KM20L2 (colon cancer)
- test name: in vitro cytotoxicity, cultured cancer cell panel: KM20L2
- Assay type: cell-based, Human
- test conditions: KM20L2; total growth inhibition (0% growth)

{"columns": ["substance", "unit text", "operator", "TGI"],
 "data": [
  ["Dov-Val-Dil-Dap 1-bicyclo[3.3.0]octane amide [Compound 13b]", "ng/mL", ">", 10],
  ["Dov-Val-Dil-Dap-Phe Amide [Compound 28d]", "ng/mL", "=", 0.0041],
  ["Dov-Val-Dil-Dap 2-[p-aminophenyl]ethylamide [Compound 29d]", "ng/mL", ">", 10],
  ["Dov-Val-Dil-Dap-Met 1-(bicyclo[3.3.0]octane) Amide [Compound 12d]", "ng/mL", "=", 0.9]
]}
